All figures here come from PubChem BioAssay AID504333.

Molecular target: Bromodomain adjacent to zinc finger domain protein 2B (Homo sapiens) (UniProt Q9UIF8)
Sequence (Q9UIF8 whole entry, looked up, the tested form may be a part): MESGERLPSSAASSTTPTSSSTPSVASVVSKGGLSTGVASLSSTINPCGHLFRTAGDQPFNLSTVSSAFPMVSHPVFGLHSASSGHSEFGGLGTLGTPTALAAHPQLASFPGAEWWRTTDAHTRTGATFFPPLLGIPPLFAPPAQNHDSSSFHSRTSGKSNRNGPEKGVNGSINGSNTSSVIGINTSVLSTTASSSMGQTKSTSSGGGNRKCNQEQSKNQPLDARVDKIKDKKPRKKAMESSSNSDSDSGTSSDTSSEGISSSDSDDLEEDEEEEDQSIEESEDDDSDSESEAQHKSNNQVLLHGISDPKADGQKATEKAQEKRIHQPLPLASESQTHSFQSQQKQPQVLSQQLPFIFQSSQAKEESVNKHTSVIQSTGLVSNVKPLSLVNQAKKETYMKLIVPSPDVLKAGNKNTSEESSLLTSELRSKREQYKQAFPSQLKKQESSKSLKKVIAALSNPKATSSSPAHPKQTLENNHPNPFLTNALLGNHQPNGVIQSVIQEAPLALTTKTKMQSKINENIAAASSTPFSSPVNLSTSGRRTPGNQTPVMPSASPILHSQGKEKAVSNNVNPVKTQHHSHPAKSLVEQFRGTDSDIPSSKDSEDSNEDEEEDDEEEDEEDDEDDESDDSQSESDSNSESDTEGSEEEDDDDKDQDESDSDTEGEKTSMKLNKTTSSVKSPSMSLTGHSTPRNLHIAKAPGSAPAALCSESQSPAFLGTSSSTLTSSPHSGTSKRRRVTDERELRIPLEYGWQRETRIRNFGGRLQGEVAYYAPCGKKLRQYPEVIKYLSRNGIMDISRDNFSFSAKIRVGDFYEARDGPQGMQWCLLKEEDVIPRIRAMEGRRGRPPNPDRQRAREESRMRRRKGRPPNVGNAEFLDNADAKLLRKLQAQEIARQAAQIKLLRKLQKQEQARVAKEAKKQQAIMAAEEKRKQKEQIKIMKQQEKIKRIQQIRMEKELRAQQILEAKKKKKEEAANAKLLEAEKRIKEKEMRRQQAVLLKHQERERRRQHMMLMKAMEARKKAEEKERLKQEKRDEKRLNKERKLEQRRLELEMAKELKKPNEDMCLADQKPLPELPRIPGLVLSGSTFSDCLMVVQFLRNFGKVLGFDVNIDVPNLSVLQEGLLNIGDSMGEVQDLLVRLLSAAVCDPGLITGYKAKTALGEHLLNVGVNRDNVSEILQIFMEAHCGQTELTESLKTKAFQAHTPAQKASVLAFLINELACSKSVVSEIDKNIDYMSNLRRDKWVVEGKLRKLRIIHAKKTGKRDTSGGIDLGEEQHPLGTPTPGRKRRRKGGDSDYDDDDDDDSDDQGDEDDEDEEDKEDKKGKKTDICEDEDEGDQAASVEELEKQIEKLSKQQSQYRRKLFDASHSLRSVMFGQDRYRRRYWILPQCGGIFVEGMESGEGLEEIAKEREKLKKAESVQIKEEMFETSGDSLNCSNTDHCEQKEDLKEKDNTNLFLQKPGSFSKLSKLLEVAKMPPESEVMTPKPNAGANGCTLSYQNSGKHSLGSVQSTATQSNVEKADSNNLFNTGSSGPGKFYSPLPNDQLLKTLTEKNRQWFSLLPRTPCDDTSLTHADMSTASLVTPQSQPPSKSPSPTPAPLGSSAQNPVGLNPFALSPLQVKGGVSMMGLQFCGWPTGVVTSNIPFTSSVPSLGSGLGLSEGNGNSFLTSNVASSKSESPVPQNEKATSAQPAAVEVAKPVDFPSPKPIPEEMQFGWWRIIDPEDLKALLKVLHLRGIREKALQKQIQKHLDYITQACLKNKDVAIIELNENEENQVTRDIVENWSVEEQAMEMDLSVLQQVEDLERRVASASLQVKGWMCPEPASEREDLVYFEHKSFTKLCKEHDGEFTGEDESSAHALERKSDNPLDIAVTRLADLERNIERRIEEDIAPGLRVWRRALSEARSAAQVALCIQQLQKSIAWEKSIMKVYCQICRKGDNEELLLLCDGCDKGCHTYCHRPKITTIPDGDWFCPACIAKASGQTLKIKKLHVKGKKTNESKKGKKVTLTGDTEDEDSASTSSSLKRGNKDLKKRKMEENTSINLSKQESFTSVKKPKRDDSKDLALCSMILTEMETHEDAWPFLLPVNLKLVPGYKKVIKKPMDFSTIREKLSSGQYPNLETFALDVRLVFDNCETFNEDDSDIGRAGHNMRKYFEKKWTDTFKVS
Assay: qHTS Assay for Inhibitors of BAZ2B; also: nearly all actives have a fitted effect of over 60% in size
Settings: AlphaScreen BAZ2B-H3K14Ac peptide displacement; series mostly up to 114 µM
Out of some 360,000 compounds screened, about 16,000 (4.4%) were called active. Another 9% or so got no clear call; they are omitted. Calls follow the shape of the dose curve; as a rule, active = well fitted inhibition curve with a large enough effect; inconclusive = small, poorly fitted or top-dose-only effect; inactive = no such curve, though single readings can be large or run the other way. Only a selection was taken, and actives are over-represented in it overall.
Labels: TRUE = active, FALSE = inactive

* COc1ccc(Cn2ccnc2SCC(=O)NCc2ccco2)cc1 | FALSE
* CC(C)NC(=S)NN=C1CCCCCCCCCCC1 | TRUE
* O=C(O)CCC(=O)N(Cc1cccs1)Cc1cccs1 | TRUE
* COc1ccccc1CN1CCC(CNC(=O)c2cnn(-c3cccc(Cl)c3)c2C2CCN(C(=O)OC(C)(C)C)CC2)CC1 | FALSE
* CCOc1ccccc1CNC(=O)C1CCCN(S(=O)(=O)c2ccc3c(ccn3C)c2)C1 (stereo not drawn) | FALSE
* CC(=C1C(=O)c2ccccc2C1=O)N1CCN(c2ccccn2)CC1 | FALSE
* Cc1c(-c2nsc(NC(=O)c3cccc(Cl)c3)n2)nnn1-c1ccccc1C(F)(F)F | FALSE
* CCCOc1ccc(-c2cccc(NS(=O)(=O)c3ccccc3)c2)nn1 | FALSE
* CCOC(=O)c1c(NC(=O)c2cc(CC)on2)sc(C(C)=O)c1C | FALSE
* CSc1nnc(NC(=O)c2nc(S(=O)(=O)Cc3ccc(C)cc3)ncc2Cl)s1 | TRUE
* COc1ccc(OC)c(-c2csc(NC(=O)COC(=O)C3CC3)n2)c1 | FALSE
* CNc1ccc(-c2nc(-c3ccco3)no2)cc1[N+](=O)[O-] | FALSE
* CCOc1ccc(CNC(=O)Cn2cc3c(n2)-c2c(oc(C(=O)N4CCCC4)c2C)CC3)cc1 | FALSE
* O=C(Cn1cc(SCc2cccc(Cl)c2)c2ccccc21)N1CCCCC1 | FALSE
* Cc1ccc(CS(=O)(=O)c2ncc(Cl)c(C(=O)Nc3nnc(C)s3)n2)cc1 | FALSE
* CCc1ccc(C(=O)NN=C2CCCCCC2)s1 | FALSE
* O=C(Nc1ccccc1-c1ccccc1)c1ccccc1[N+](=O)[O-] | FALSE
* COc1ccccc1CNC(=O)NCc1noc2ccc(C)cc12 | FALSE
* COc1ccccc1-c1ccnc2[nH]n(-c3ccccc3)c(=O)c12 | FALSE
* CCc1nnc(NS(=O)(=O)c2ccc(NC(=S)NC(=O)c3cccs3)cc2)s1 | FALSE
* COc1ccc(NC(=O)C(=O)NCc2ccco2)cc1 | FALSE
* CCc1ccc(CNC(=O)c2cc3c(=O)n(CC)c4ccccc4c3s2)cc1 | FALSE
* COc1ccc(-c2csc(NC(=O)COC(=O)Cc3ccc(Cl)cc3Cl)n2)cc1 | FALSE
* Cc1cc(C)c(C2C3=C(Nc4c2c(C)nn4-c2ccccn2)c2ccccc2C3=O)c(C)c1 (stereo not drawn) | TRUE
* O=C(CSc1nc(=O)n(Cc2cccnc2)c2c1CCC2)Nc1ccc(F)cc1F | FALSE
* Cc1sc2nc(CSCC(=O)Nc3c(Cl)cccc3Cl)[nH]c(=O)c2c1C | FALSE
* Cc1cc(-c2ccc(C)c(S(=O)(=O)N3c4ccccc4CC3C)c2)on1 (stereo not drawn) | FALSE
* CCc1nnc(NS(=O)(=O)c2ccc(NC(=S)NC(=O)/C=C/c3cccs3)cc2)s1 | TRUE
* CC(C)Cn1c(C2CC(=O)N(c3ccccc3Cl)C2)nc2ccccc21 (stereo not drawn) | FALSE
* CCC1CCCCN1S(=O)(=O)c1ccc(NC(=O)c2cc(=O)c3ccccc3o2)cc1 (stereo not drawn) | FALSE
* COc1ccc(OC)c(Nc2nc(-c3ccc(O)c(O)c3)cs2)c1 | TRUE
* CN(CC#CCC(c1ccccc1)c1ccccc1)C(C)(C)C | FALSE
* COc1cccc(CNC(=O)Cn2c(=O)c3cccn3c3ccc(F)cc32)c1OC | FALSE

* * *

Target: Bromodomain adjacent to zinc finger domain protein 2B (Homo sapiens)
Test: qHTS Assay for Inhibitors of BAZ2B; also: nearly all actives have a fitted effect of over 60% in size
Details: AlphaScreen BAZ2B-H3K14Ac peptide displacement; series mostly up to 114 µM
Out of some 360,000 compounds screened, about 16,000 (4.4%) were called active. Not shown: some 9% with an inconclusive outcome. Calls follow the shape of the dose curve; as a rule, active = well fitted inhibition curve with a large enough effect; inconclusive = small, poorly fitted or top-dose-only effect; inactive = no such curve, though single readings can be large or run the other way. Many of the other results were omitted from the sample, so actives are more common in it than they were.
Labels: True for active, False for inactive

• CCS(=O)(=O)N1CCc2cc(C(=O)N3CCN(c4ccccc4OC)CC3)ccc21 = False
• CC1=C(C(=O)OCC(C)C)C(c2ccc(OCc3ccccc3)cc2)N2C(=O)CCSC2=N1 (stereo not given) = False
• CS(=O)(=O)C1=NN2C(=N)/C(=C\c3ccc(OCCOc4ccccc4)cc3)C(=O)N=C2S1 = True
• COc1ccccc1OCCOc1ccc(/C=C2\C(=N)N3N=C(C)SC3=NC2=O)cc1 = False
• Cc1cc(C(=O)O)ccc1[N+](=O)[O-] = False
